Test: Pharmacokinetics in CD-1 mice
Settings: CD-1, mouse, plasma, iv, 10 mg/kg, pH 4
Property Label: clearance (mL/min/kg)
Answers are plain numbers, in mL/min/kg.

Cn1c(CNC2(C)CCC2)cc2cc3c(cc21)CCCc1c-3[nH]c(=O)c(C(=O)O)c1O [Compound 6p]    35

Item: CN(C)Cc1cc2cc3c(cc2n1C)OCCc1c-3[nH]c(=O)c(C(=O)O)c1O [Compound 6s] | clearance: 53
